Documented melting point across a set of molecules
The figure you give is taken to be in °C; do not add the unit.

CC(Oc1ccc(F)c(F)c1)c1cc(C(=O)N2CC[C@H](N(C)C)C2)cc2ncc(N3CCOCC3)nc12 (single isomer, unassigned) [Compound 363a]    80
CNCCOCCN(C)C(=O)c1cc(C(C)Nc2cc(F)c(F)c(F)c2)c2nc(N3CCOCC3)cnc2c1 (single isomer, unassigned) [Compound 315b]    90
CC(Nc1cc(F)cc(F)c1)c1cncc2ncc(N3CCOCC3)nc12 (stereo not shown)    90
CN(C)C(=O)c1cc(C2CCCN2c2cc(F)cc(C=O)c2)c2nc(N3CCOCC3)cnc2c1 (stereo not shown)    80
CN(C)C(=O)c1cc(C2CCCN2c2cccc(C(F)(F)F)c2)c2nc(N3CCOCC3)cnc2c1 (stereo not shown)    80
CC(c1cc(C(=O)N2CCOCC2)cc2ncc(N3CCOCC3)nc12)N(C)c1cccc(F)c1 (stereo not shown)    161

In the following, a different molecule is considered.
# input Form field: reported melting point of O=C(NCCO)c1cc(CNc2cc(F)cc(F)c2)c2nc(N3CCOCC3)cnc2c1
# output 265

---

assayed system: PI3Kβ (Homo sapiens)
Construct: purchased DiscoveRx Corporation, San Diego (contract service, KINOMEscan)
protocol description: Enzyme binding assay (KINOMEscan, DiscoveRx)
assay context: PIK3Cβ_h, read-out: Kd PIK3Cβ_h
Overview of recorded Kd for various compounds
Response body: numeric value in nM, unit text excluded.

COC(=O)[C@H]1CCCN1C(=O)c1cc(C(C)Nc2cc(F)cc(F)c2)c2nc(N3CCOCC3)cnc2c1 (some centres unmarked) [Compound 272]    5
CC(Nc1ccc(F)c(F)c1)c1cc(C(=O)N2CC[C@@H](O)C2)cc2ncc(N3CCOCC3)nc12 (some centres unmarked) [Compound 300]    4
CC(Nc1cc(F)cc(F)c1)c1cc(CN2CCOCC2)cc2ncc(N3CCOCC3)nc12 (centres unmarked) [Compound 168]    17
O=C(c1cc(C2CCCN2c2cc(F)cc(F)c2)c2nc(N3CCOCC3)cnc2c1)N1CCS(=O)(=O)CC1 (single isomer, unassigned) [Compound 38]    0.4
COC(=O)c1cc(C(C)Nc2cc(F)cc(F)c2)c2nc(N3CCOCC3)cnc2c1 (centres unmarked) [Compound 235]    50

Shift focus to the following entry.
# input Value wanted: Kd (PI3Kβ (Homo sapiens)) of entry CC(Nc1ccc(F)c(F)c1)c1cc(C(=O)NCCO)cc2ncc(N3CCOCC3)nc12 (centres unmarked) [Compound 279]
# output 5

---

assayed system: kinase enzymes (Homo sapiens)
Construct: purchased DiscoveRx Corporation, San Diego (contract service, KINOMEscan)
protocol description: Enzyme binding assay (KINOMEscan, DiscoveRx), further kinases of Table A
assay context: MTOR_h
pKd: −log10 of the molar value.
endpoint name: pKd

The following compounds have reported results that may help.
CC(Nc1ccc(F)c(F)c1)c1cc(C(=O)NC2CCNC2)cc2ncc(N3CCOCC3)nc12 (stereo not drawn) [Compound 325a]    < 4.52
CC(Nc1ccc(F)c(F)c1)c1cc(C(=O)N2CC[C@@H](O)C2)cc2ncc(N3CCOCC3)nc12 (single isomer, unassigned) [Compound 300b]    < 4.52
OC(CN1CCC1)c1cc(C2CCCN2c2cc(F)cc(F)c2)c2nc(N3CCOCC3)cnc2c1 (single isomer, unassigned)    < 4.52
CNCCN(C)C(=O)c1cc(C(C)Nc2cc(F)c(F)c(F)c2)c2nc(N3CCOCC3)cnc2c1 (single isomer, unassigned) [Compound 335b]    < 4.52
CCN(c1cccc(F)c1)C(C)c1cc(C(=O)N2CCOCC2)cc2ncc(N3CCOCC3)nc12 (stereo not drawn)    4.66
CN(C)C(=O)c1cc(N2CCCC2c2cc(F)cc(F)c2)c2nc(N3CCOCC3)cnc2c1 (single isomer, unassigned) [Compound 395a]    < 4.52
CC(Nc1cccc(F)c1)c1cc(C(=O)N2CCC[C@H](O)C2)cc2ncc(N3CCOCC3)nc12 (single isomer, unassigned) [Compound 320a]    < 4.52
CC(Nc1cc(F)cc(F)c1)c1cc(C(=O)N2CCNC(C(F)(F)F)C2)cc2ncc(N3CCOCC3)nc12 (single isomer, unassigned) [Compound 237d]    < 4.52

# input // returns reported pKd for input CC(C)NCCNC(=O)c1cc(C(C)Nc2ccc(Cl)c(F)c2)c2nc(N3CCOCC3)cnc2c1 (single isomer, unassigned) [Compound 312b]
# output 4.70

# input Form field: reported pKd of CC(Nc1ccc(F)c(F)c1)c1cc(C(=O)N2CCN3CCC[C@@H]3C2)cc2ncc(N3CCOCC3)nc12 (single isomer, unassigned) [Compound 347a]
# output < 4.52

# input Need pKd, item CC(Nc1ccc(F)c(F)c1)c1cc(C(=O)NC[C@@H](C)O)cc2ncc(N3CCOCC3)nc12 (single isomer, unassigned) [Compound 346a]
# output 4.51

# input Which pKd value belongs to CC(Nc1cccc(F)c1)c1cc(C(=O)N2CC[C@@H](O)C2)cc2ncc(N3CCOCC3)nc12 (single isomer, unassigned) [Compound 321a] ?
# output < 4.52

---

assayed system: PI3Kβ (Homo sapiens, UniProt P42338)
Construct: purchased DiscoveRx Corporation, San Diego (contract service, KINOMEscan)
Sequence (P42338 whole entry): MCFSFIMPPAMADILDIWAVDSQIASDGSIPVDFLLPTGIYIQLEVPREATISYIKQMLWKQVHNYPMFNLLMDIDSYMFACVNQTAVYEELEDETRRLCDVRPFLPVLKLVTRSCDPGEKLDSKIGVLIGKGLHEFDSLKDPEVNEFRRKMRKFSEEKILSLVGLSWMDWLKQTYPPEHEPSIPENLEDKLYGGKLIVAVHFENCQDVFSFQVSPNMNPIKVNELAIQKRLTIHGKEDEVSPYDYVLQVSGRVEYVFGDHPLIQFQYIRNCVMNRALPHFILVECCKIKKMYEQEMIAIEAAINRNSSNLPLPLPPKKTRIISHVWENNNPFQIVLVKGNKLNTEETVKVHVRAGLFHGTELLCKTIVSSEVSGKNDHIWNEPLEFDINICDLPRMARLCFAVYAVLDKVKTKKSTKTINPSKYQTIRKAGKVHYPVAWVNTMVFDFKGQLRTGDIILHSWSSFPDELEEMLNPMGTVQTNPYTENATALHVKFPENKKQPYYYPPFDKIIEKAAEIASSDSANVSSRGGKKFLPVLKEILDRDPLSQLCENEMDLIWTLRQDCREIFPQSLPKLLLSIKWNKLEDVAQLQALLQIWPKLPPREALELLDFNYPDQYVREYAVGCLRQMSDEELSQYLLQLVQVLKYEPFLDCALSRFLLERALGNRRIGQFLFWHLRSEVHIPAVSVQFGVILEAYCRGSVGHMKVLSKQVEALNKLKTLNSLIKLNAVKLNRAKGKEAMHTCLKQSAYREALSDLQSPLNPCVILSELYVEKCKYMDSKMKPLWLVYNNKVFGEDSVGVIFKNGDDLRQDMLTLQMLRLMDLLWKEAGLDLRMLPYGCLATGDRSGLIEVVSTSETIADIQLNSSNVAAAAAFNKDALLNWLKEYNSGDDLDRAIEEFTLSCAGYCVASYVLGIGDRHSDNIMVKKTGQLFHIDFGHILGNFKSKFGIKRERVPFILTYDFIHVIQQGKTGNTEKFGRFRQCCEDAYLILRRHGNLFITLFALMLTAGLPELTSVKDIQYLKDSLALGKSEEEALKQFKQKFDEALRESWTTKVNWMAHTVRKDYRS
protocol description: Enzyme binding assay (KINOMEscan, DiscoveRx)
assay context: PIK3Cβ_h, read-out: Kd PIK3Cβ_h
endpoint name: pKd
Field pKd (float): negative decimal logarithm of the concentration in molar.

O=C(c1cc(NCc2cc(F)cc(F)c2)c2nc(N3CCOCC3)cnc2c1)N1CCCNCC1    7.68
CC(Nc1cc(F)cc(F)c1)c1cc(C(=O)N2CCN(CC(F)(F)F)CC2)cc2ncc(N3CCOCC3)nc12 (centres unmarked) [Compound 171]    8.52
CNCCNC(=O)c1cc(C(C)Nc2cc(F)cc(F)c2)c2nc(N3CCOCC3)cnc2c1 (single isomer, unassigned) [Compound 406a]    10.00
CC(Nc1cc(F)cc(F)c1)c1cc(C(=O)NS(=O)(=O)C2CC2)cc2ncc(N3CCOCC3)nc12 (single isomer, unassigned) [Compound 219]    9.00
CC(Nc1cc(F)cc(F)c1)c1cc(CN2CCO[C@H](CO)C2)cc2ncc(N3CCOCC3)nc12 (single isomer, unassigned) [Compound 196]    8.30
CC(Oc1cccc(F)c1)c1cc(C(=O)N(C)C)cc2ncc(N3CCOCC3)nc12 (racemic) [Compound 339]    6.37
CC(Nc1ccc(F)c(F)c1)c1cc(C(=O)NCCCO)cc2ncc(N3CCOCC3)nc12 (centres unmarked) [Compound 280]    8.22
CCN1CCN(C(=O)c2cc(C(C)Oc3cccc(F)c3)c3nc(N4CCOCC4)cnc3c2)CC1 (single isomer, unassigned) [Compound 92]    5.99

# input For the compound CC(Nc1cc(F)cc(F)c1)c1cc(C(=O)N2CCNC(C(F)(F)F)C2)cc2ncc(N3CCOCC3)nc12 (single isomer, unassigned) [Compound 237b] , what pKd is on record?
# output 7.13

# input Would you mind telling me what pKd value was observed for O=C(NCCO)c1cc(NCc2cccc(F)c2)c2nc(N3CCOCC3)cnc2c1 ?
# output 7.92

# input // pKd lookup, key: CC(Nc1cc(F)cc(F)c1)c1cc(C(=O)N2CCOCC2)cc2ncc(N3CCOCC3)nc12 (single isomer, unassigned) [Compound 8]
# output 9.00

# input GET /values?readout=pKd&item= CC(Nc1cc(F)cc(F)c1)c1cc(CNCC(F)(F)F)cc2ncc(N3CCOCC3)nc12 (single isomer, unassigned) [Compound 162]
# output 8.05

# input Fill in: pKd of CC(Nc1cc(F)cc(F)c1)c1cc(C(=O)O)cc2ncc(N3CCOCC3)nc12 (centres unmarked) [Compound 236] is ___
# output 8.70

---

Test system: Akt phosphorylated at Ser473 in PC-3 cells
protocol description: Cellular assay: phosphorylation of Akt at Ser473 in PC-3 cells (MSD ELISA)
Assay type: cell-based
assay context: PC-3 cells, 60 min compound incubation, MSD ELISA; read-out: IC50 pAkt_S473
endpoint name: pIC50
The scale used: pIC50 is minus the common logarithm of the concentration in molar units.

Worked examples, 6 compounds total:
C[C@@H](Nc1cc(F)cc(F)c1)c1cc(C(=O)NCCN(C)C)cc2ncc(N3CCOCC3)nc12 [Compound 184a]    8.52
CC(Nc1cc(F)c(F)c(F)c1)c1cc(C(=O)NCCN(C)C)cc2ncc(N3CCOCC3)nc12 (single isomer, unassigned) [Compound 309a]    8.05
CC(Nc1ccc(F)c(F)c1)c1cc(C(=O)NCCCO)cc2ncc(N3CCOCC3)nc12 (single isomer, unassigned) [Compound 280a]    7.06
CNCCN(C)C(=O)c1cc(C(C)Nc2cc(F)c(F)c(F)c2)c2nc(N3CCOCC3)cnc2c1 (single isomer, unassigned) [Compound 335a]    8.30
CN[C@H]1CCN(C(=O)c2cc(C(C)Nc3cc(F)c(F)c(F)c3)c3nc(N4CCOCC4)cnc3c2)C1 (single isomer, unassigned) [Compound 297b]    8.15
CC(Oc1cccc(F)c1)c1cc(CO)cc2ncc(N3CCOCC3)nc12 (single isomer, unassigned) [Compound 88]    6.75

# input Find the measured pIC50: item CC(Nc1cc(F)cc(F)c1)c1cc(CO)cc2ncc(N3CCOCC3)nc12 (single isomer, unassigned) [Compound 154a] , target or system Akt phosphorylated at Ser473 in PC-3 cells.
# output 7.52

# input Kindly state the measured pIC50 obtained for CNCCN(C)C(=O)c1cc(C(C)Nc2cc(F)cc(F)c2)c2nc(N3CCOCC3)cnc2c1 (single isomer, unassigned) [Compound 152] with Akt phosphorylated at Ser473 in PC-3 cells.
# output 7.21

# input API: value(readout=pIC50, system=Akt phosphorylated at Ser473 in PC-3 cells) for record CC(Nc1ccc(F)c(F)c1)c1cc(C(=O)N(C)C2CCNC2)cc2ncc(N3CCOCC3)nc12 (stereo not shown) [Compound 323b]
# output 6.68

# input What reported pIC50 corresponds to Cc1cc(C2CCCN2c2cc(F)cc(F)c2)c2nc(N3CCOCC3)cnc2c1 (single isomer, unassigned) [Compound 106] on Akt phosphorylated at Ser473 in PC-3 cells?
# output 6.98

# input Give Akt phosphorylated at Ser473 in PC-3 cells pIC50 for CC(Nc1cc(F)c(F)c(F)c1)c1cc(C(=O)N(C)C2CCNC2)cc2ncc(N3CCOCC3)nc12 (single isomer, unassigned) [Compound 296a]
# output 7.64

# input API: value(readout= pIC50, system= Akt phosphorylated at Ser473 in PC-3 cells, query= CC(Nc1cc(F)cc(F)c1)c1cc(C(=O)N2CCOCC2)cc2ncc(N3CCOCC3)nc12 (single isomer, unassigned) [Compound 8] )
# output 7.60
